STUDY SYSTEM: T1, sAniA, recombinant AniA (NGO1276) of Neisseria gonorrhoeae FA1090 lacking the N-terminal palmitoylation … (Neisseria gonorrhoeae FA1090, UniProt Q02219 19-392)
T1 sequence: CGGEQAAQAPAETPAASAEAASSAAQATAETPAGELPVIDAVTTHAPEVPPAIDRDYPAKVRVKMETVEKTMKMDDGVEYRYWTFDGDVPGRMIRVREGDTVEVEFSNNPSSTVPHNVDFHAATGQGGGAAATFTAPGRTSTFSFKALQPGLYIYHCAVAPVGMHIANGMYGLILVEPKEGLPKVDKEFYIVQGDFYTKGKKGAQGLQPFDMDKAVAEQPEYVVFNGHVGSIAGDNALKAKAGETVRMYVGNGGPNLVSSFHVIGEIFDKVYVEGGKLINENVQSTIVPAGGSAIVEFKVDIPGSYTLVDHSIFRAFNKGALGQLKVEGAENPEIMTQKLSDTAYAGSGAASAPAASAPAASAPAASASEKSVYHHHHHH
TEST PROTOCOL: cell-based or functional assay
Would you mind telling me the reported IC50 of inhibition of nitrite reductase activity of sAniA (DAN assay) of each entry?
Use µM as the unit, but write only the number.

Query :: Would you mind telling me what IC50 of inhibition of nitrite reductase activity of sAniA (DAN assay) value was observed for H-ACSYCRLNLWGGGS-NH2 (cysteine pairing not given here) [synthetic peptide C7-3m2 (H-ACSYCRLNLWGGGS-NH2)] ?
Result :: 4.81

Query :: How about H-ACNYCRLNLWGGGS-NH2 (cysteine pairing not given here) [synthetic peptide C7-3 (H-ACNYCRLNLWGGGS-NH2)] ?
Result :: 10.2

Query :: How about H-ACNYSRLNLWGGGS-NH2 [synthetic peptide C7-3m1 (H-ACNYSRLNLWGGGS-NH2)] ?
Result :: 5.91
